Entry source: PubChem BioAssay AID1745844

test system: rodent lifetime carcinogenesis bioassay, tumor incidence TD50; assay: carcinogenic potency in animals, long-term in vivo studies, CPDB compilation (AID 1745844); conditions: rat; strain Fischer 344; males; in feed; site: cecum + jejunum + stomach; lesion: adenocarcinoma, NOS; dosed 105 weeks; study length 105 weeks
PROPERTY_NAME: TD50

*Q* Entry "Clc1cccc(-c2ccc(Cl)c(Cl)c2Cl)c1Cl" : reported TD50 = ?
*A* 34.6 mg/kg/day

* * *

tested on: rodent lifetime carcinogenesis bioassay, tumor incidence TD50; experiment: carcinogenic potency in animals, long-term in vivo studies, CPDB compilation (AID 1745844); conditions: rat; strain Fischer 344; males; in drinking water; site: any site (literature study); lesion: several types; types named in the paper; dosed 88 weeks; study length 92 weeks
PROPERTY_NAME: TD50 (mg/kg/day)
Express it in mg/kg/day; write the number only.

*Q* Entry "COc1cc(-c2ccc(N)c(OC)c2)ccc1N" : reported TD50 = ?
*A* 0.565

* * *

test system: rodent lifetime carcinogenesis bioassay, tumor incidence TD50; test: carcinogenic potency in animals, long-term in vivo studies, CPDB compilation (AID 1745844); details: mouse; strain Swiss albino; males; in drinking water; site: lung; lesion: several types; types named in the paper; dosed 79 weeks; study length 79 weeks
PROPERTY_NAME: TD50

*Q* Entry "NC(=O)NNc1ccccc1" : reported TD50 = ?
*A* 176 mg/kg/day

* * *

test system: rodent lifetime carcinogenesis bioassay, tumor incidence TD50; experiment: carcinogenic potency in animals, long-term in vivo studies, CPDB compilation (AID 1745844); details: mouse; strain B6C3F1; males; in feed; site: liver; lesion: hepatocellular adenoma + hepatocellular carcinoma; dosed 78 weeks; study length 91 weeks
The compounds listed here are annotated with their TD50.

*Q* Entry "OC(c1ccc(Cl)cc1)(c1ccc(Cl)cc1)C(Cl)(Cl)Cl" : reported TD50 = ?
*A* 32.9 mg/kg/day

Okay, next one:
*Q* Entry "Cc1ccc(Cl)cc1N" : reported TD50 = ?
*A* 249 mg/kg/day

* * *

test system: rodent lifetime carcinogenesis bioassay, tumor incidence TD50; experiment: carcinogenic potency in animals, long-term in vivo studies, CPDB compilation (AID 1745844); conditions: rat; strain Charles River CD (Sprague-Dawley); males; in feed; site: skin; lesion: fibroma; dosed 68 weeks; study length 68 weeks
PROPERTY_NAME: TD50

*Q* Entry "Cc1cc(Cc2ccc(N)c(C)c2)ccc1N" : reported TD50 = ?
*A* 8.19 mg/kg/day

* * *

system: rodent lifetime carcinogenesis bioassay, tumor incidence TD50; experiment: carcinogenic potency in animals, long-term in vivo studies, CPDB compilation (AID 1745844); conditions: rat; strain Fischer 344; males; by gavage; site: any site (literature study); lesion: several types; types named in the paper; dosed 65 weeks; study length 104 weeks
PROPERTY_NAME: TD50 (mg/kg/day)
Express it in mg/kg/day; write the number only.

*Q* Entry "O=c1ccc2ccccc2o1" : reported TD50 = ?
*A* 12.2

* * *

The molecules listed here are annotated with their TD50.
system: rodent lifetime carcinogenesis bioassay, tumor incidence TD50; assay: carcinogenic potency in animals, long-term in vivo studies, CPDB compilation (AID 1745844); settings: rat; strain Sprague-Dawley; males; inhaled; site: any site (literature study); lesion: several types; types named in the paper; dosed 104 weeks; study length 104 weeks
The source made the active and inactive calls. How the calls were made is not given here.

*Q* Entry "FC(F)(Cl)Cl" : reported TD50 = ?
*A* 555 mg/kg/day (inactive)

Further cases:
*Q* Entry "FC(F)Cl" : reported TD50 = ?
*A* 6540 mg/kg/day (inactive)
